Ref: ChEMBL document CHEMBL4725466

Experiment: Kinetic aqueous solubility of compound in 2% DMSO/Phosphate buffer saline incubated for 90 mins under shaking condition by
Assay type: physicochemical
Settings: 2% DMSO/phosphate buffered saline, read-out: Kinetic_solubility
Measurement Name: solubility kinetic at 1.5 h (µM)
Respond with the bare value in µM.

Lookup: Entry under review: `O=C(Nc1ccccc1)Nc1ccc(-c2nc(N3CCOCC3)c3ccccc3n2)cc1` . Reported solubility kinetic at 1.5 h?
Found: 8.1

Lookup: Entry under review: `CS(=O)(=O)Nc1ccc(NC(=O)Nc2ccc(-c3nc(N4CCOCC4)c4ccccc4n3)cc2)cc1` . Reported solubility kinetic at 1.5 h?
Found: 6.9
